# TEST_PROTOCOL: Preliminary experiment: effect of NC-siRNA on pharmacokinetics of TP in mice
# Assay type: in vivo
# CONDITION: C57, mouse, plasma, iv, 1 mg/kg, mice, TP 1.0 mg/kg + saline, plasma
OBSERVATION_TYPE: clearance (mL/min/kg)
Answers are plain numbers, in mL/min/kg.

Would you mind telling me what clearance value was observed for CC(C)[C@]12O[C@H]1[C@@H]1O[C@]13[C@]1(O[C@H]1C[C@H]1C4=C(CC[C@@]13C)C(=O)OC4)[C@@H]2O [TP, Triptolide] ? 165

* * *

# TARGET: P-gp (Mus musculus, UniProt P21447)
# Construct: from tissue; host or cells: whole living mice (in vivo, intravenous digoxin 1 mg/kg after NC-siRNA or mdr1a-1 siRNA)
# Sequence (P21447 whole entry): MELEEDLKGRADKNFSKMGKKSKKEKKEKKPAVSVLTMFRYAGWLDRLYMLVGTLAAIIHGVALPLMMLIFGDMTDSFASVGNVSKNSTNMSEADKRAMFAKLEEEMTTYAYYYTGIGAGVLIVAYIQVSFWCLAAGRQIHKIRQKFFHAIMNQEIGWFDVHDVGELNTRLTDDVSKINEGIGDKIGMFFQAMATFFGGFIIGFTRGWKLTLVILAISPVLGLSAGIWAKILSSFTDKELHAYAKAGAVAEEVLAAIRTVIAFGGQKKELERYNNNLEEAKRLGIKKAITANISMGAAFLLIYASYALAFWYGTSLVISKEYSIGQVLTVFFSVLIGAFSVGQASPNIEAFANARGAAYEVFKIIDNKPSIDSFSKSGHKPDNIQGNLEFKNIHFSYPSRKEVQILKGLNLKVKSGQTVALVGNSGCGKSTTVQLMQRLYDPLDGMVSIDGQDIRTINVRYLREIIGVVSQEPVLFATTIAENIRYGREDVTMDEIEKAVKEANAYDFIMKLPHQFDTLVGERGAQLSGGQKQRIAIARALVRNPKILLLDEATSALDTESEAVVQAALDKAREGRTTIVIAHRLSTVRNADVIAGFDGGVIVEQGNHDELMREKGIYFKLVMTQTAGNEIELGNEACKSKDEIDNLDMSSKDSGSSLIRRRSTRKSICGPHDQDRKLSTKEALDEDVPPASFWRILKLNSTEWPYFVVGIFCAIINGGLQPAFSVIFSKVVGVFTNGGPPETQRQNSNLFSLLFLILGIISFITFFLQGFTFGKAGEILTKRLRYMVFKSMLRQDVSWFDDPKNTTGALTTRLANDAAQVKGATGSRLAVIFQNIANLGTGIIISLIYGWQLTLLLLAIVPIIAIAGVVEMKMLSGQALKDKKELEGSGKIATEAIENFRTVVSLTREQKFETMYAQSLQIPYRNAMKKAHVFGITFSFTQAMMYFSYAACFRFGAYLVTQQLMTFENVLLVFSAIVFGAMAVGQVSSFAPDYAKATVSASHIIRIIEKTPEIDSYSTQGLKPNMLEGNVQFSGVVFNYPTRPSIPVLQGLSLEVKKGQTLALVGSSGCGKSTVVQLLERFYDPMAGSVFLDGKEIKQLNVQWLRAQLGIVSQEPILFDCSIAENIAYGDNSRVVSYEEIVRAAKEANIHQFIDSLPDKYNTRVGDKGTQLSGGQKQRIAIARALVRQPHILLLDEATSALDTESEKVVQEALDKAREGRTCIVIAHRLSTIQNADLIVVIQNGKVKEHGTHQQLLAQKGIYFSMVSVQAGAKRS
# TEST_PROTOCOL: P-gp function in knockdown mice assessed by digoxin plasma pharmacokinetics
# Format: in vivo
# CONDITION: iv, 1 mg/kg, digoxin 1 mg/kg injection, mdr1a-1 siRNA iv 2 days prior
OBSERVATION_TYPE: Cmax (ng/mL)
One number for each entry, in ng/mL.

Would you mind telling me what Cmax value was observed for C[C@H]1O[C@@H](O[C@H]2[C@@H](O)C[C@H](O[C@H]3[C@@H](O)C[C@H](O[C@H]4CC[C@@]5(C)[C@H](CC[C@@H]6[C@@H]5C[C@@H](O)[C@]5(C)[C@@H](C7=CC(=O)OC7)CC[C@]65O)C4)O[C@@H]3C)O[C@@H]2C)C[C@H](O)[C@@H]1O ? 2260

* * *

# TEST_PROTOCOL: Triptolide plasma toxicokinetics in mice
# Type: in vivo
# CONDITION: C57, mouse, iv, 1 mg/kg, TP 1.0 mg/kg iv, 15 nmol NC-siRNA iv 2 days before (control)
OBSERVATION_TYPE: AUC(0-t) (ng·h/mL)
Answers are plain numbers, in ng·h/mL.

Would you mind telling me what AUC(0-t) value was observed for CC(C)[C@]12O[C@H]1[C@@H]1O[C@]13[C@]1(O[C@H]1C[C@H]1C4=C(CC[C@@]13C)C(=O)OC4)[C@@H]2O [TP, Triptolide] ? 104

* * *

# TARGET: P-gp (Mus musculus, UniProt P21447)
# Construct: from tissue; host or cells: whole living mice (in vivo, intravenous digoxin 1 mg/kg after NC-siRNA or mdr1a-1 siRNA)
# TEST_PROTOCOL: P-gp function in knockdown mice assessed by digoxin plasma pharmacokinetics
# Format: in vivo
# CONDITION: iv, 1 mg/kg, digoxin 1 mg/kg injection, NC-siRNA iv 2 days prior
OBSERVATION_TYPE: AUC(0-t) (ng·h/mL)
Give bare numbers, in ng·h/mL.

Would you mind telling me what AUC(0-t) value was observed for C[C@H]1O[C@@H](O[C@H]2[C@@H](O)C[C@H](O[C@H]3[C@@H](O)C[C@H](O[C@H]4CC[C@@]5(C)[C@H](CC[C@@H]6[C@@H]5C[C@@H](O)[C@]5(C)[C@@H](C7=CC(=O)OC7)CC[C@]65O)C4)O[C@@H]3C)O[C@@H]2C)C[C@H](O)[C@@H]1O [Digoxin, digoxin] ? 3360

* * *

# TEST_PROTOCOL: Triptolide plasma toxicokinetics in mice
# Format: in vivo
# CONDITION: C57, mouse, TP 1.0 mg/kg iv, 15 nmol NC-siRNA iv 2 days before (control)
OBSERVATION_TYPE: MRT (min)
Answers are plain numbers, in min.

Would you mind telling me what MRT value was observed for CC(C)[C@]12O[C@H]1[C@@H]1O[C@]13[C@]1(O[C@H]1C[C@H]1C4=C(CC[C@@]13C)C(=O)OC4)[C@@H]2O [TP, Triptolide] ? 20.4

* * *

# TARGET: P-gp (Mus musculus)
# Construct: from tissue; host or cells: whole living mice (in vivo, intravenous digoxin 1 mg/kg after NC-siRNA or mdr1a-1 siRNA)
# TEST_PROTOCOL: P-gp function in knockdown mice assessed by digoxin plasma pharmacokinetics
# Type: in vivo
# CONDITION: iv, 1 mg/kg, digoxin 1 mg/kg injection, NC-siRNA iv 2 days prior
OBSERVATION_TYPE: clearance (mL/min/kg)
One number for each entry, in mL/min/kg.

Would you mind telling me what clearance value was observed for C[C@H]1O[C@@H](O[C@H]2[C@@H](O)C[C@H](O[C@H]3[C@@H](O)C[C@H](O[C@H]4CC[C@@]5(C)[C@H](CC[C@@H]6[C@@H]5C[C@@H](O)[C@]5(C)[C@@H](C7=CC(=O)OC7)CC[C@]65O)C4)O[C@@H]3C)O[C@@H]2C)C[C@H](O)[C@@H]1O ? 4.21

* * *

# TEST_PROTOCOL: Triptolide plasma toxicokinetics in mice
# Format: in vivo
# CONDITION: mouse, TP 1.0 mg/kg iv, 15 nmol mdr1a-siRNA iv 2 days before
OBSERVATION_TYPE: MRT (min)
Give bare numbers, in min.

Would you mind telling me what MRT value was observed for CC(C)[C@]12O[C@H]1[C@@H]1O[C@]13[C@]1(O[C@H]1C[C@H]1C4=C(CC[C@@]13C)C(=O)OC4)[C@@H]2O [TP, Triptolide] ? 30.6

* * *

# TEST_PROTOCOL: Triptolide plasma toxicokinetics in mice
# Assay type: in vivo
# CONDITION: C57, mouse, iv, 1 mg/kg, TP 1.0 mg/kg iv, 15 nmol NC-siRNA iv 2 days before (control)
# Protocol: For TP plasma kinetic study and toxicological evaluation, mice were divided into four groups (n = 5 each) to collect blood and tissue samples: (1) normal + saline group; (2) 1.0 mg/kg TP + 15 nmol NC-siRNA group; (3) 1.0 mg/kg TP + 15 nmol mdr1a-siRNA group; (4) 1.0 mg/kg TP + 10 mg/kg tariquidar group. […] The concentrations of TP in plasma and liver tissue were measured by a validated LC-MS/MS method. […] The TP in plasma and tissue samples was quantitatively analyzed by a published LC-MS/MS method. […]
OBSERVATION_TYPE: Vd (L/kg)
One number for each entry, in L/kg.

Would you mind telling me what Vd value was observed for CC(C)[C@]12O[C@H]1[C@@H]1O[C@]13[C@]1(O[C@H]1C[C@H]1C4=C(CC[C@@]13C)C(=O)OC4)[C@@H]2O [TP, Triptolide] ? 4.8

* * *

# TARGET: P-gp (Mus musculus, UniProt P21447)
# Construct: from tissue; host or cells: whole living mice (in vivo, intravenous digoxin 1 mg/kg after NC-siRNA or mdr1a-1 siRNA)
# TEST_PROTOCOL: P-gp function in knockdown mice assessed by digoxin plasma pharmacokinetics
# Assay type: in vivo
# CONDITION: iv, 1 mg/kg, digoxin 1 mg/kg injection, mdr1a-1 siRNA iv 2 days prior
OBSERVATION_TYPE: half-life
// return the numeric value with its unit appended

Would you mind telling me what half-life value was observed for C[C@H]1O[C@@H](O[C@H]2[C@@H](O)C[C@H](O[C@H]3[C@@H](O)C[C@H](O[C@H]4CC[C@@]5(C)[C@H](CC[C@@H]6[C@@H]5C[C@@H](O)[C@]5(C)[C@@H](C7=CC(=O)OC7)CC[C@]65O)C4)O[C@@H]3C)O[C@@H]2C)C[C@H](O)[C@@H]1O ? 4 h

* * *

# TEST_PROTOCOL: Preliminary experiment: effect of NC-siRNA on pharmacokinetics of TP in mice
# Type: in vivo
# CONDITION: C57, mouse, iv, mice, TP 1.0 mg/kg + saline, plasma
OBSERVATION_TYPE: half-life (min)
One number for each entry, in min.

Would you mind telling me what half-life value was observed for CC(C)[C@]12O[C@H]1[C@@H]1O[C@]13[C@]1(O[C@H]1C[C@H]1C4=C(CC[C@@]13C)C(=O)OC4)[C@@H]2O [TP, Triptolide] ? 12.6

Value source: paper PMC4488747
